Biological target: c-SRC (Homo sapiens, UniProt P12931)
Construct: T7 phage fusion (most assays) or DNA tag for qPCR (HEK-293-made kinases)
Sequence (P12931 whole entry, the tested form may be a part): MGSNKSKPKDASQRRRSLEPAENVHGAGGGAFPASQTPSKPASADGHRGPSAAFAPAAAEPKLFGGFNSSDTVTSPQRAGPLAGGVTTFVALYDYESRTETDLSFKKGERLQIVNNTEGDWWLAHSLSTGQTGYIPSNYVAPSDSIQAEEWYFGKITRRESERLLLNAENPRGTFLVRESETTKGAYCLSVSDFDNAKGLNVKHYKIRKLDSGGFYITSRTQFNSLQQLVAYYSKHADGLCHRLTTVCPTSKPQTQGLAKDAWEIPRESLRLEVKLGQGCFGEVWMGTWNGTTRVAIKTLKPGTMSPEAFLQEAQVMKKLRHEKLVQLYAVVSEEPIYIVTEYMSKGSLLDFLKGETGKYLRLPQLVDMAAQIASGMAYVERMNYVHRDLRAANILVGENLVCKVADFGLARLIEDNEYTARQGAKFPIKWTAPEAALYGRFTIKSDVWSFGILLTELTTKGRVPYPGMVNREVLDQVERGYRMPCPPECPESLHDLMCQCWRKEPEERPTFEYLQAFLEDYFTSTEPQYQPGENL
Assay: kinase competition binding assay
Settings: Table 1
MEASURED PARAMETER: pIC50
Scale: pIC50 equals -log10([C]), with [C] in mol/L.

Inquiry: What measured pIC50 goes with COc1cc(-c2cc(=O)c3c(O)cc(O)c(CC=C(C)C)c3o2)ccc1O [FBL-03G, Caflanone] ?
Reply text: 5.96
